# MEASUREMENT_TARGET: UniProt:P30542
# Sequence (P30542 whole entry): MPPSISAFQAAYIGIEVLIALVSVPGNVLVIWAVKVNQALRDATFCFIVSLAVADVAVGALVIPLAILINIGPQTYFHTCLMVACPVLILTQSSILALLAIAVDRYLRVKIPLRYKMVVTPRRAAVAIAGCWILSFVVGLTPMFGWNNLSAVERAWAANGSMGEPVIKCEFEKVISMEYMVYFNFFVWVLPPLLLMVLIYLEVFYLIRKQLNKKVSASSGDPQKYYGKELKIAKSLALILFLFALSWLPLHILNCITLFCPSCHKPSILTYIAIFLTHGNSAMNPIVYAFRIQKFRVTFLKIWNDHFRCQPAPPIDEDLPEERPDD
# ASSAY_REMARKS: Displacement of [3H]R-PIA from human adenosine A1 receptor transfected in CHO cells
# Assay type: cell-based
ENDPOINT_NAME: pKi
Answers are plain numbers, as −log10 of the molar value.

The following compounds have reported results that may help.
CCNC(=O)[C@H]1S[C@@H](n2cnc3c(NC4CCCC4)nc(Cl)nc32)[C@H](O)[C@@H]1O :: 8.70
O=C(NC1CC1)[C@H]1S[C@@H](n2cnc3c(NC4CC4)nc(Cl)nc32)[C@H](O)[C@@H]1O :: 8.34
CNc1nc(Cl)nc2c1ncn2[C@@H]1S[C@H](C(=O)NC2CC2)[C@@H](O)[C@H]1O :: 7.32
O=C(NC1CCC1)[C@H]1S[C@@H](n2cnc3c(NCc4cccc(I)c4)nc(Cl)nc32)[C@H](O)[C@@H]1O :: 6.90
CNC(=O)[C@H]1S[C@@H](n2cnc3c(NC4CCCC4)nc(Cl)nc32)[C@H](O)[C@@H]1O :: 7.86

Quick one: give me pKi for each item below, same order please.
1. CNc1nc(Cl)nc2c1ncn2[C@@H]1S[C@H](C(=O)NCC2CC2)[C@@H](O)[C@H]1O
2. Cc1ccccc1CNc1nc(Cl)nc2c1ncn2[C@@H]1S[C@H](C(=O)NCC2CC2)[C@@H](O)[C@H]1O
3. O=C(NC1CC1)[C@H]1S[C@@H](n2cnc3c(NCc4cccc(I)c4)nc(Cl)nc32)[C@H](O)[C@@H]1O
4. CNC(=O)[C@H]1S[C@@H](n2cnc3c(NCc4ccccc4C)nc(Cl)nc32)[C@H](O)[C@@H]1O
5. Cc1ccccc1CNc1nc(Cl)nc2c1ncn2[C@@H]1S[C@H](C(=O)NC2CC2)[C@@H](O)[C@H]1O
6. O=C(NCc1cccc(Cl)c1)[C@H]1S[C@@H](n2cnc3c(NCc4cccc(I)c4)nc(Cl)nc32)[C@H](O)[C@@H]1O
7. CCNC(=O)[C@H]1S[C@@H](n2cnc3c(NCc4cccc(I)c4)nc(Cl)nc32)[C@H](O)[C@@H]1O

Result:
1: 6.20; 2: 5.70; 3: 7.04; 4: 6.29; 5: 7.12; 6: 5.77; 7: 6.84

Quick one: give me pKi for each item below, same order please.
1. CCNC(=O)[C@H]1S[C@@H](n2cnc3c(NCc4ccccc4C)nc(Cl)nc32)[C@H](O)[C@@H]1O
2. CCNC(=O)[C@H]1S[C@@H](n2cnc3c(NC4CC4)nc(Cl)nc32)[C@H](O)[C@@H]1O
3. CNc1nc(Cl)nc2c1ncn2[C@@H]1S[C@H](C(=O)NCCC(C)C)[C@@H](O)[C@H]1O
4. O=C(NCC1CC1)[C@H]1S[C@@H](n2cnc3c(NCc4cccc(I)c4)nc(Cl)nc32)[C@H](O)[C@@H]1O

Result:
7.12
8.49
5.39
5.76

Query: Look up pKi: `CNC(=O)[C@H]1S[C@@H](n2cnc3c(NC4CC4)nc(Cl)nc32)[C@H](O)[C@@H]1O`
Result: 7.43

----------
# MEASUREMENT_TARGET: Adenosine receptor A2a (Homo sapiens)
# Sequence (P29274 whole entry): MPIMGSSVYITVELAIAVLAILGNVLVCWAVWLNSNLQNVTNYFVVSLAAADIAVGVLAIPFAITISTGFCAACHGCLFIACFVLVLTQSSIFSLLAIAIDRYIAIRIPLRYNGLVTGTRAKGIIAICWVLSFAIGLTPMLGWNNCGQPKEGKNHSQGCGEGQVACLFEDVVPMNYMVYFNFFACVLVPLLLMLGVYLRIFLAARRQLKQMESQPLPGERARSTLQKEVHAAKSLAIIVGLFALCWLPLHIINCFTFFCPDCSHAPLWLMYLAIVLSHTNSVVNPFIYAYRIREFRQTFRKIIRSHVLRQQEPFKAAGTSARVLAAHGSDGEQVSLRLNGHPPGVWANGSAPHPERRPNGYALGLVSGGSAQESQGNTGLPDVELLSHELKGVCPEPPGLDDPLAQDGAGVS
# ASSAY_REMARKS: Displacement of [3H]CGS-21680 from human adenosine A2A receptor transfected in HEK293 cells
ENDPOINT_NAME: pKi
Give bare numbers, as −log10 of the molar value.

CCNC(=O)[C@H]1S[C@@H](n2cnc3c(NC4CCCC4)nc(Cl)nc32)[C@H](O)[C@@H]1O :: 6.83
CNC(=O)[C@H]1S[C@@H](n2cnc3c(NCc4ccccc4C)nc(Cl)nc32)[C@H](O)[C@@H]1O :: 5.88
CNC(=O)[C@H]1S[C@@H](n2cnc3c(NC4CC4)nc(Cl)nc32)[C@H](O)[C@@H]1O :: 5.31

Quick one: give me pKi for each item below, same order please.
1. CCNC(=O)[C@H]1S[C@@H](n2cnc3c(NCc4cccc(I)c4)nc(Cl)nc32)[C@H](O)[C@@H]1O
2. Cc1ccccc1CNc1nc(Cl)nc2c1ncn2[C@@H]1S[C@H](C(=O)NCC2CC2)[C@@H](O)[C@H]1O
3. O=C(NCC1CC1)[C@H]1S[C@@H](n2cnc3c(NCc4cccc(I)c4)nc(Cl)nc32)[C@H](O)[C@@H]1O

Result:
6.53
5.41
5.65

----------
# MEASUREMENT_TARGET: Adenosine receptor A1 (Homo sapiens)
# Sequence (whole entry): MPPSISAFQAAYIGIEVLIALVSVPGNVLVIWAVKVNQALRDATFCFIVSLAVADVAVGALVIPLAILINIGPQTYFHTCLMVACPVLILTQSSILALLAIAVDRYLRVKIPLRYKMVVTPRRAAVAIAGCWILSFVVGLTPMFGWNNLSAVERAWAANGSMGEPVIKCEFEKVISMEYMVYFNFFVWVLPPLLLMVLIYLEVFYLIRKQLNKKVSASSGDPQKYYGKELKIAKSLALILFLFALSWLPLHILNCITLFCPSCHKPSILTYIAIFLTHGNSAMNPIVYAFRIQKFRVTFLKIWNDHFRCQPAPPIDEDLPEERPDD
# ASSAY_REMARKS: Inhibition of [3H]R-PIA binding to human adenosine A1 receptor transfected in CHO cells at 10 uM
# Format: cell-based
Use 20% as the dividing line for inhibition, with the line itself on the fulfilled side and lower values as not fulfilled.

O=C([C@H]1S[C@@H](n2cnc3c(NC4CC4)nc(Cl)nc32)[C@H](O)[C@@H]1O)N1CCOCC1 :: fulfilled
CNc1nc(Cl)nc2c1ncn2[C@@H]1S[C@H](C(=O)N2CCC(Cc3ccccc3)CC2)[C@@H](O)[C@H]1O :: not fulfilled
O=C(NCCC(c1ccccc1)c1ccccc1)[C@H]1S[C@@H](n2cnc3c(NCc4cccc(I)c4)nc(Cl)nc32)[C@H](O)[C@@H]1O :: not fulfilled
CNc1nc(Cl)nc2c1ncn2[C@@H]1S[C@H](C(=O)NCc2cccc(F)c2)[C@@H](O)[C@H]1O :: fulfilled

Query: Reported inhibition reaches at least 20% for `Cc1ccccc1CNc1nc(Cl)nc2c1ncn2[C@@H]1S[C@H](C(=O)N2CCC(Cc3ccccc3)CC2)[C@@H](O)[C@H]1O` ?
Result: fulfilled

----------
# MEASUREMENT_TARGET: Adenosine receptor A1 (Homo sapiens) (UniProt P30542)
# Sequence (whole entry): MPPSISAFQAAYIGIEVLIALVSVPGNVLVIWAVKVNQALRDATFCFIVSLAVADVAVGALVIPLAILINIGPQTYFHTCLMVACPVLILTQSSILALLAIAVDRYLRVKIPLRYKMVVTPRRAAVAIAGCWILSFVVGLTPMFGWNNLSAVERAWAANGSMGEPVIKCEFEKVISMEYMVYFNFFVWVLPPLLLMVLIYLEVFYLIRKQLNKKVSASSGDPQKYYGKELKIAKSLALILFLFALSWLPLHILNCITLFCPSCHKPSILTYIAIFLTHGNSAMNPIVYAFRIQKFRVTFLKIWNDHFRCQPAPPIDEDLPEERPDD
# ASSAY_REMARKS: Inhibition of [3H]R-PIA binding to human adenosine A1 receptor transfected in CHO cells at 10 uM
# Type: cell-based
Use 30% as the dividing line for inhibition, with the line itself on the label 1 side and lower values as label 0.

Completed entries (count: 6):
O=C([C@H]1S[C@@H](n2cnc3c(NCc4cccc(I)c4)nc(Cl)nc32)[C@H](O)[C@@H]1O)N1CCOCC1 :: label 0
CC(C)CCNC(=O)[C@H]1S[C@@H](n2cnc3c(NCc4cccc(I)c4)nc(Cl)nc32)[C@H](O)[C@@H]1O :: label 1
Cc1ccccc1CNc1nc(Cl)nc2c1ncn2[C@@H]1S[C@H](C(=O)N2CCOCC2)[C@@H](O)[C@H]1O :: label 0
O=C([C@H]1S[C@@H](n2cnc3c(NCc4cccc(I)c4)nc(Cl)nc32)[C@H](O)[C@@H]1O)N1CCC(Cc2ccccc2)CC1 :: label 1
CNc1nc(Cl)nc2c1ncn2[C@@H]1S[C@H](C(=O)N2CCN(c3ccc(F)cc3)CC2)[C@@H](O)[C@H]1O :: label 0
O=C([C@H]1S[C@@H](n2cnc3c(NC4CC4)nc(Cl)nc32)[C@H](O)[C@@H]1O)N1CCC(Cc2ccccc2)CC1 :: label 1

Moving on to the next compound.
Query: Reported inhibition reaches at least 30% for `Cc1ccccc1CNc1nc(Cl)nc2c1ncn2[C@@H]1S[C@H](C(=O)N(C)C)[C@@H](O)[C@H]1O` ?
Result: label 0
